measured.target: Ascaris suum succinate-ubiquinone reductase (mitochondrial complex II) (Ascaris suum, UniProt O44074+P92506+P92507)
Construct: from tissue; host or cells: mitochondria from adult Ascaris suum muscle
Sequence (O44074 22-282): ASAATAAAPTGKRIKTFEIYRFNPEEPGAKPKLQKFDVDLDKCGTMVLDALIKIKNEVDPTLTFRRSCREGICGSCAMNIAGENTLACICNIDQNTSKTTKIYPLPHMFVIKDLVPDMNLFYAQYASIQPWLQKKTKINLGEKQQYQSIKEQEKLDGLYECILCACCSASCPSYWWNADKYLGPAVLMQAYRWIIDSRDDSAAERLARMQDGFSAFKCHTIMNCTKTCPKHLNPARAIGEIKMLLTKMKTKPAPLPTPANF
Sequence (P92506 32-188): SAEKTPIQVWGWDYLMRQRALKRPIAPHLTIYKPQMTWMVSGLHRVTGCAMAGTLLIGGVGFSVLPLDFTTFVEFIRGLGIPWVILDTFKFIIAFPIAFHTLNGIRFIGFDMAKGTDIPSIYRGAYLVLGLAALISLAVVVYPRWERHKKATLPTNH
Sequence (P92507 26-156): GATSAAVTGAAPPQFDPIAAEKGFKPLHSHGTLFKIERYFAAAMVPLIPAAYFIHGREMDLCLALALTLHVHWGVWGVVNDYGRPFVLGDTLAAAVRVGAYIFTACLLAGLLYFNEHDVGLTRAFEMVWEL
Sequence (Q33862 19-645 partner): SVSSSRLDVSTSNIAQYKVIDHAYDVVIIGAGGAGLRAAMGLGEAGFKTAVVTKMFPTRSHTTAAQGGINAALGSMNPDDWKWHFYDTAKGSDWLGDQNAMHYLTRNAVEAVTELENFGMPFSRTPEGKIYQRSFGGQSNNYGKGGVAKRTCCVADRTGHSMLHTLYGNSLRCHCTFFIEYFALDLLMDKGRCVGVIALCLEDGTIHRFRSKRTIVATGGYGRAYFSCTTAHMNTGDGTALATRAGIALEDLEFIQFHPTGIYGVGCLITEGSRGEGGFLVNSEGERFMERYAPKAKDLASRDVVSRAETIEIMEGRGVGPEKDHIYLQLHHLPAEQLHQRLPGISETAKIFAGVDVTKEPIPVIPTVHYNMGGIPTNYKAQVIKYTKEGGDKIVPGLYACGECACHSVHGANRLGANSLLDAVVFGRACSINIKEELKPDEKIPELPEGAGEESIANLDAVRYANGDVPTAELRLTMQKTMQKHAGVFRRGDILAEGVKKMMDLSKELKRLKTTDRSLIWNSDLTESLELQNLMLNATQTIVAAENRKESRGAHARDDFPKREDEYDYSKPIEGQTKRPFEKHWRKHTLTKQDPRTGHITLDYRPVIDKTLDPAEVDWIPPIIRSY
protocol.details: In vitro inhibitory activity on Ascaris suum succinate-ubiquinone reductase (mitochondrial complex II)
Assay type: biochemical
settings: mitochondria from adult Ascaris suum muscle, UQ2 60 μM, potassium succinate 10 mM, 25° C., absorbance at 278 nm; read-out: Ascaris suum IC50 value (A)
Answer each item with its documented IC50.
Answers are plain numbers, in nM.

Look over these answered cases.
> print(dat)
                                   compound  reported.property  uom  val
1        O=C(NCCc1cc(F)c(Cl)cc1F)c1cccnc1Cl               IC50   nM   18
2       O=C(NCCc1cc(F)c(Cl)cc1Cl)c1cccnc1Cl               IC50   nM  6.7
3  O=C(NCCc1cc(F)c(Cl)cc1Cl)c1nccnc1C(F)(F)F               IC50   nM  1.3

Would you mind giving IC50 for every compound in the list below?
1. O=C(NCCc1ccc(Oc2ccc(C(F)(F)F)cn2)cc1Cl)c1cccnc1Cl
2. O=C(NCCc1ccc(Oc2ncc(C(F)(F)F)cc2Cl)cc1Cl)c1nccnc1C(F)(F)F
3. O=C(NCC1(c2ccc(Cl)cc2Cl)CC1)c1nccnc1Cl
4. C[C@@H](Cn1nc(Br)c(Br)c1Br)NC(=O)c1cccnc1Cl
5. O=C(NC1(Cc2ccc(Cl)cc2Cl)CC1)c1nccnc1C(F)(F)F
6. CC(Cc1ccc(Cl)cc1F)NC(=O)c1nccnc1Cl (stereo not drawn)

Out:
4.5
1.3
2.7
42
3.1
10

###

measured.target: Ascaris suum succinate-ubiquinone reductase (mitochondrial complex II) (Ascaris suum, UniProt O44074+P92506+P92507)
Construct: from tissue; host or cells: mitochondria from adult Ascaris suum muscle
protocol.details: In vitro inhibitory activity on Ascaris suum succinate-ubiquinone reductase (mitochondrial complex II)
Type: biochemical
settings: mitochondria from adult Ascaris suum muscle, UQ2 60 μM, potassium succinate 10 mM, 25° C., absorbance at 278 nm; read-out: Ascaris suum IC50 value (A)
reported.property: pIC50
Give bare numbers, as −log10 of the molar value.

Known results for compounds:
> print(dat)
                                   compound  reported.property   val
1  O=C(NCCc1ccc(F)cc1Cl)c1nccnc1C(F)(F)F [Compound 11]              pIC50  8.47
2  Cc1nccnc1C(=O)NCCc1ccc(-c2ccc(OC(F)(F)F)cc2)cc1 [Compound 5]              pIC50  7.59

Now for the compound whose pIC50 we want.
In: Field request: pIC50 | item: O=C(NCCc1ncc(C(F)(F)F)cc1Cl)c1cccnc1Cl [Compound 1]
Out: 7.33

###

measured.target: Ascaris suum succinate-ubiquinone reductase (mitochondrial complex II) (Ascaris suum, UniProt O44074+P92506+P92507)
Construct: from tissue; host or cells: mitochondria from adult Ascaris suum muscle
protocol.details: In vitro inhibitory activity on Ascaris suum succinate-ubiquinone reductase (mitochondrial complex II)
Assay type: biochemical
settings: mitochondria from adult Ascaris suum muscle, UQ2 60 μM, potassium succinate 10 mM, 25° C., absorbance at 278 nm; read-out: Ascaris suum IC50 value (A)
Threshold-based label: IC50 under 5 nM gives Y, IC50 not under 5 nM gives N.

The following compounds have reported results that may help.
> print(dat)
                                   compound  class.assignment
1  O=C(NCCc1ncc(C(F)(F)F)cc1Cl)c1nccnc1C(F)(F)F                 N
2    O=C(NCCc1ccc(Cl)cc1Cl)c1cnccc1C(F)(F)F                 N
3  O=C(NCCc1cc(F)c(F)cc1Cl)c1nccnc1C(F)(F)F                 Y
4            Cc1occc1C(=O)NCCc1ccc(Cl)cc1Cl                 Y
5  CC(Cc1cc(F)c(F)cc1Cl)NC(=O)c1nccnc1C(F)(F)F (stereo not shown)                 Y

Now for a further compound.
In: Find out if reported IC50 for Nc1nc(C(F)(F)F)c(C(=O)NCCc2ccc(Cl)cc2Cl)s1 is less than 5 nM
Out: N
